Origin of the recorded values: patent US6825230B2

Each record here notes measured Activity (%).
test system: P. berghei ANKA strain; assay: Divided 3x3 mg/kg and 3x1 mg/kg po doses in infected mice; assay type: in vivo, Plasmodium berghei; conditions: 3 × 3 mg/kg p.o. SSV on days 1, 2, 3 post-infection; percent reduction of parasitemia vs control on day 4
ENDPOINT NAME: Activity (%)

                                   compound  readout_units  result_number
0  CS(=O)(=O)O.NCCOc1ccc(C2CCC3(CC2)OOC2(O3)C3CC4CC(C3)CC2C4)cc1 (centres unmarked)              %          99.95
1  Cc1ccc(S(=O)(=O)O)cc1.O=C(C[C@H]1CC[C@]2(CC1)OO[C@]1(O2)C2CC3CC(C2)CC1C3)N1CCNCC1              %            100
2  CCOC(=O)CNCC1CCC2(CC1)OOC1(O2)C2CC3CC(C2)CC1C3.CS(=O)(=O)O (centres unmarked)              %             93
3  O=C(CC1CCC2(CC1)OOC1(O2)C2CC3CC(C2)CC1C3)N1CCC(O)CC1 (centres unmarked)              %             89
4  NC(=O)c1cn(CC2CCC3(CC2)OOC2(O3)C3CC4CC(C3)CC2C4)cn1 (centres unmarked)              %             96
5  CC(C)(N)CNC(=O)C[C@H]1CC[C@]2(CC1)OO[C@]1(O2)C2CC3CC(C2)CC1C3              %            100
6  CS(=O)(=O)O.NC(=O)CCNCC1CCC2(CC1)OOC1(O2)C2CC3CC(C2)CC1C3 (centres unmarked)              %          99.97
7  Oc1ccc(C2CCC3(CC2)OOC2(O3)C3CC4CC(C3)CC2C4)cc1 (centres unmarked)              %             99
